test system: H69 (human small cell lung cancer - Rb-negative) cells; assay: Cellular proliferation assay (CellTiter-Glo), H69; format: cell-based; conditions: NCI-H69, 96 h, four days
measurement label: EC50

Need EC50 of `CN1CCN(C(=O)c2ccc(Nc3ncc4cc5n(c4n3)C3(CCCC3)CNC5=O)nc2)CC1` , thanks.
> 3 µM

---

Assign IC50 to each entry below.
Molecular target: CDK4/CyclinD1 (Homo sapiens (Human))
Sequence (P11802 whole entry, species assumed): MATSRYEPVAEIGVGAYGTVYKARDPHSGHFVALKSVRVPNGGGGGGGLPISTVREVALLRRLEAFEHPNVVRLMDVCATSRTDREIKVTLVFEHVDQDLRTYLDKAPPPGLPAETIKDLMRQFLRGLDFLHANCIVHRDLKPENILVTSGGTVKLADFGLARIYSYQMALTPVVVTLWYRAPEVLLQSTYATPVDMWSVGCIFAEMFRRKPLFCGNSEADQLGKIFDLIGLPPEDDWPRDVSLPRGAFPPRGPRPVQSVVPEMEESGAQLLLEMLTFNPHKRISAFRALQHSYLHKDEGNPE
Sequence (P24385 whole entry partner, species assumed): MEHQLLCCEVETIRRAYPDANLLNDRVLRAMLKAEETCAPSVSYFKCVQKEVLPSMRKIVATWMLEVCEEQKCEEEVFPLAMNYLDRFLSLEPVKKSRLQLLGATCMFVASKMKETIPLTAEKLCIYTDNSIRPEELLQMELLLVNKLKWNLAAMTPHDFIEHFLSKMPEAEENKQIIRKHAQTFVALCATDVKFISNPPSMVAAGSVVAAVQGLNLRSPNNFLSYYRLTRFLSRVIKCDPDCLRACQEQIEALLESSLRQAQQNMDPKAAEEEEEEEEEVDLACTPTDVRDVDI
Assay: CDK4/CyclinD1 kinase assay (Nanosyn, Caliper microfluidic)
Format: biochemical
Settings: Table 2; read-out: CDK4/CycD1 IC50
Experimental: Selected compounds disclosed herein were tested in CDK4/cyclinD1, CDK6/CycD3 CDK2/CycA and CDK2/cyclinE kinase assays by Nanosyn (Santa Clara, Calif.) to determine their inhibitory effect on these CDKs. The assays were performed using microfluidic kinase detection technology (Caliper Assay Platform). The compounds were tested in 12-point dose-response format in singlicate at Km for ATP. […]

Need IC50 of `CN1CCN(C(=O)c2ccc(Nc3ncc4cc5n(c4n3)C3(CCCC3)CNC5=O)nc2)CC1` , thanks.
2.8 nM

Continue with CC1CN(c2ccc(Nc3ncc4cc5n(c4n3)C3(CCCCC3)CNC5=O)nc2)CCN1CCC(C)(C)C (stereo not drawn)
1.5 nM

Continue with `C[C@H]1CN(c2ccc(Nc3ncc4cc5n(c4n3)C3(CCCCC3)CNC5=O)nc2)CCN1CCC(C)(C)C`
2.3 nM

Continue with `CC(C)N1CCN(Cc2ccc(Nc3ncc4cc5n(c4n3)C3(CCCCC3)CNC5=O)nc2)CC1`
3.8 nM

Continue with `C[C@@H](O)CN1CCN(c2ccc(Nc3ncc4cc5n(c4n3)C3(CCCCC3)CNC5=O)nc2)CC1`
1.7 nM

Continue with `O=C1NCC2(CCCC2)n2c1cc1cnc(Nc3ccc(N4CCOCC4)nn3)nc12`
2 nM

---

biological target: CDK2/CyclinE (Homo sapiens (Human), UniProt P24941); assay: CDK2/CyclinE kinase assay (Nanosyn, Caliper microfluidic); format: biochemical; conditions: Table 2; read-out: CDK2/CycE IC50
measurement label: IC50
Give me the value, and tack the unit on after it.

Need IC50 of O=C1NCC2(CCCC2)n2c1cc1cnc(Nc3ccc(C(=O)N4CCN(CC5CC5)CC4)cn3)nc12 [OOO] , thanks.
0.393 µM

Continue with CCN(CC)C1CCN(C2CCN(c3ccc(Nc4ncc5cc6n(c5n4)C4(CCCCC4)CNC6=O)nc3)CC2)C1 (stereo not shown) [RR]
1.58 µM

Continue with CC(C)N1CCN(c2ccc(Nc3ncc4cc5n(c4n3)C3(CCCC3)CNC5=O)nc2)CC1C (stereo not shown) [GGG]
7.61 µM

Continue with O=C1NCC2(CCCC2)n2c1cc1cnc(Nc3ccc(N4CCC(N5CCCCC5)CC4)cn3)nc12 [HHH]
2.84 µM

Continue with C[C@@H]1CN(c2ccc(Nc3ncc4cc5n(c4n3)C3(CCCCC3)CNC5=O)nc2)C[C@H](C)N1C[C@@H](C)O [MM]
3.39 µM

Continue with CCC(C)CN1CCN(c2ccc(Nc3ncc4cc5n(c4n3)C3(CCCC3)CNC5=O)nc2)CC1 (stereo not shown) [AAA]
6.01 µM

Continue with C[C@H](O)CN1CCN(c2ccc(Nc3ncc4cc5n(c4n3)C3(CCCC3)CNC5=O)nc2)C[C@H]1C [XX]
7.3 µM

---

Target: CDK2/CyclinA (Homo sapiens (Human))
Experiment: CDK2/CyclinA kinase assay (Nanosyn, Caliper microfluidic)
Type: biochemical
Details: Table 2; read-out: CDK2/CycA IC50
Experimental: Selected compounds disclosed herein were tested in CDK4/cyclinD1, CDK6/CycD3 CDK2/CycA and CDK2/cyclinE kinase assays by Nanosyn (Santa Clara, Calif.) to determine their inhibitory effect on these CDKs. The assays were performed using microfluidic kinase detection technology (Caliper Assay Platform). The compounds were tested in 12-point dose-response format in singlicate at Km for ATP. […]
measurement label: pIC50
Scale for pIC50: -log10 of concentration given in mol/L; no unit attached.

Need pIC50 of `CC1(C)CN(c2ccc(Nc3ncc4cc5n(c4n3)C3(CCCCC3)CNC5=O)nc2)CCN1C1CC1` , thanks.
6.30

Continue with `CC1(C)CN(c2ccc(Nc3ncc4cc5n(c4n3)C3(CCCCC3)CNC5=O)nc2)CCN1`
5.95

Continue with `C[C@@H]1CN(c2ccc(Nc3ncc4cc5n(c4n3)C3(CCCCC3)CNC5=O)nc2)CCN1C[C@@H](C)O`
5.36

Continue with CC(C)C1CN(c2ccc(Nc3ncc4cc5n(c4n3)C3(CCCCC3)CNC5=O)nc2)CCN1 (stereo not shown)
6.69

---

molecular target: CDK2/CyclinA (Homo sapiens (Human)); experiment: CDK2/CyclinA kinase assay (Nanosyn, Caliper microfluidic); format: biochemical; details: Table 2
// NO strictly below 900 in Fold Selectivity (CDK2/CycA/CDK4); YES otherwise

Does Fold Selectivity (CDK2/CycA/CDK4) meet or surpass 900 for `C[C@H](O)CN1CCN(c2ccc(Nc3ncc4cc5n(c4n3)C3(CCCC3)CNC5=O)nc2)C[C@H]1C` ?
YES

Continue with `CC(C)N1CCN(c2ccc(Nc3ncc4cc5n(c4n3)C3(CCCCC3)CNC5=O)nc2)C[C@@H]1C`
YES

Continue with `CC(C)N1CCN(C(=O)c2ccc(Nc3ncc4cc5n(c4n3)C3(CCCCC3)CNC5=O)nc2)CC1`
NO

Continue with CC1CN(c2ccc(Nc3ncc4cc5n(c4n3)C3(CCCCC3)CNC5=O)nc2)CCN1CCC(C)(C)C (centres unmarked)
NO

Continue with `C[C@H]1CN(c2ccc(Nc3ncc4cc5n(c4n3)C3(CCCCC3)CNC5=O)nc2)CCN1CCC(C)(C)C`
NO

Continue with CC1CN(c2ccc(Nc3ncc4cc5n(c4n3)C3(CCCC3)CNC5=O)nc2)CC(C)N1CCC(C)(C)C (centres unmarked)
YES

Continue with `C[C@@H]1CN(c2ccc(Nc3ncc4cc5n(c4n3)C3(CCCCC3)CNC5=O)nc2)CCN1C`
NO

---

molecular target: CDK2/CyclinA (Homo sapiens (Human), UniProt P24941); assay: CDK2/CyclinA kinase assay (Nanosyn, Caliper microfluidic); assay type: biochemical; settings: Table 2; read-out: CDK2/CycA IC50
measurement label: pIC50
Scale for pIC50: -log10 of concentration given in mol/L; no unit attached.

Need pIC50 of `C[C@H](O)CN1CCN(c2ccc(Nc3ncc4cc5n(c4n3)C3(CCCC3)CNC5=O)nc2)C[C@H]1C` , thanks.
5.20

Continue with `O=C1NCC2(CCCCC2)n2c1cc1cnc(Nc3ccc(C(=O)N4CCN(C5CCC5)CC4)cn3)nc12`
6.97

Continue with `CC(C)(O)CN1CCN(c2ccc(Nc3ncc4cc5n(c4n3)C3(CCCC3)CNC5=O)nc2)CC1`
6.03

Continue with `CC(C)N1CCN(C(=O)c2ccc(Nc3ncc4cc5n(c4n3)C3(CCCCC3)CNC5=O)nc2)CC1`
6.62

Continue with `C[C@@H]1CN(c2ccc(Nc3ncc4cc5n(c4n3)C3(CCCCC3)CNC5=O)nc2)C[C@H](C)N1C[C@@H](C)O`
6.22

Continue with `CCN(CC)C1CCN(c2ccc(Nc3ncc4cc5n(c4n3)C3(CCCC3)CNC5=O)nc2)CC1`
5.34

Continue with CC1CN(c2ccc(Nc3ncc4cc5n(c4n3)C3(CCCC3)CNC5=O)nc2)CCN1CC1CC1 (stereo not drawn)
6.00

Continue with `CN(C)C1CCN(c2ccc(Nc3ncc4cc5n(c4n3)C3(CCCCC3)CNC5=O)nc2)CC1`
5.50

Continue with `C[C@H](O)CN1CCN(c2ccc(Nc3ncc4cc5n(c4n3)C3(CCCCC3)CNC5=O)nc2)CC1`
5.50

---

molecular target: CDK2/CyclinA (Homo sapiens (Human), UniProt P24941); test: CDK2/CyclinA kinase assay (Nanosyn, Caliper microfluidic); format: biochemical; settings: Table 2
// False strictly below 600 in Fold Selectivity (CDK2/CycA/CDK4); True otherwise

Does Fold Selectivity (CDK2/CycA/CDK4) meet or surpass 600 for CC1CN(c2ccc(Nc3ncc4cc5n(c4n3)C3(CCCCC3)CNC5=O)nc2)CCN1CC(C)(C)O (stereo not shown) [W] ?
False

Continue with C[C@H]1CN(c2ccc(Nc3ncc4cc5n(c4n3)C3(CCCCC3)CNC5=O)nc2)CCN1C [R]
True

Continue with CC(C)(C)CCN1CCN(c2ccc(Nc3ncc4cc5n(c4n3)C3(CCCC3)CNC5=O)nc2)CC1 [KKK]
False

Continue with C[C@@H]1CN(c2ccc(Nc3ncc4cc5n(c4n3)C3(CCCCC3)CNC5=O)nc2)C[C@H](C)N1 [P]
False

Continue with CCN(CC)C1CCN(c2ccc(Nc3ncc4cc5n(c4n3)C3(CCCCC3)CNC5=O)nc2)C1 (stereo not shown) [QQ]
True

Continue with CC(C)(O)CN1CCN(c2ccc(Nc3ncc4cc5n(c4n3)C3(CCCC3)CNC5=O)nc2)CC1 [EEE]
False

Continue with C[C@@H](O)CN1CCN(c2ccc(Nc3ncc4cc5n(c4n3)C3(CCCC3)CNC5=O)nc2)C[C@@H]1C [VV]
False

Continue with CCN1[C@H](C)CN(c2ccc(Nc3ncc4cc5n(c4n3)C3(CCCCC3)CNC5=O)nc2)C[C@@H]1C [FF]
True

Continue with CN(C)C1CCN(c2ccc(Nc3ncc4cc5n(c4n3)C3(CCCCC3)CNC5=O)nc2)CC1 [O]
True
